Test system: 6C3HED lymphosarcoma
assayName: animal or person
Type: in vivo
studyConditions: oral, 75 mg/kg, BIDX 8
attributeMeasured: Tox/Tot (mice which died / total)

Answered examples (4):
NS(=O)(=NC(=O)Nc1ccc(Cl)cc1)c1ccc(CO)cc1 (stereo not drawn) ... 2/10
Cc1ccc(S(=O)(=NC(=O)Nc2ccc(Cl)cc2)NCC(C)C)cc1 (stereo not drawn) ... 0/10
CC(=O)OCc1ccc(S(=N)(=O)NC(=O)Nc2ccc(Cl)cc2)cc1 (stereo not drawn) ... 0/10
CN=S(=O)(NC(=O)Nc1ccc(Cl)cc1)c1ccc2c(c1)CCC2 (stereo not drawn) ... 0/10

// Input: Cc1ccc(S(=O)(=NC(C)C)NC(=O)Nc2ccc(Cl)cc2)cc1 (stereo not drawn) . Output its Tox/Tot (mice which died / total) only.
0/10

// Input: NS(=O)(=NC(=O)Nc1ccc(Cl)cc1)c1ccc(Br)cc1 (stereo not drawn) . Output its Tox/Tot (mice which died / total) only.
0/10

====

Documented Tox/Tot (mice which died / total) across a set of compounds
Tested on: 6C3HED lymphosarcoma
assayName: animal or person
Type: in vivo
studyConditions: oral, 50 mg/kg, BIDX 8

Answered examples (3):
CN=S(=O)(NC(=O)Nc1ccc(Cl)cc1)c1ccc(C)cc1 (stereo not shown) ... 0/10
NS(=O)(=NC(=O)Nc1ccc(Cl)cc1)c1ccc(Br)cc1 (stereo not shown) ... 0/10
NS(=O)(=NC(=O)Nc1ccc(Cl)cc1)c1ccc(Cl)cc1 (stereo not shown) ... 0/10

State Tox/Tot (mice which died / total) (6C3HED lymphosarcoma) of Cc1ccc(S(=N)(=O)NC(=O)Nc2ccc(Cl)cc2)cc1 (stereo not shown) .
0/10

State Tox/Tot (mice which died / total) (6C3HED lymphosarcoma) of CCc1ccc(S(=N)(=O)NC(=O)Nc2ccc(Cl)cc2)cc1 (stereo not shown) .
1/10

State Tox/Tot (mice which died / total) (6C3HED lymphosarcoma) of CC(=O)OCc1ccc(S(=N)(=O)NC(=O)Nc2ccc(Cl)cc2)cc1 (stereo not shown) .
0/10

State Tox/Tot (mice which died / total) (6C3HED lymphosarcoma) of Cc1ccc(S(=N)(=O)NC(=O)Nc2ccc(Cl)cc2)cc1C (stereo not shown) .
7/8

====

System: 6C3HED lymphosarcoma
assayName: animal or person
Assay type: in vivo
studyConditions: Mus musculus, 6C3HED, ip, read-out: % inhibition of tumor growth, IP, 300 mg/kg, DX 8
Quick rule for you: inhibition in vivo at 300 mg/kg at 50% or higher means Fulfilled, lower means Not fulfilled.

Solved cases (8 shown):
Cc1ccc(S(=N)(=O)NC(=O)Nc2ccc(Cl)cc2)cc1 (stereo not drawn) [Example 2] ... Fulfilled
Cc1ccc(S(=O)(=NC(=O)Nc2ccc(Cl)cc2)Nc2ccccc2)cc1 (stereo not drawn) [Example 14] ... Not fulfilled
N=S(=O)(NC(=O)Nc1ccc(Cl)cc1)c1ccc2c(c1)CCC2 (stereo not drawn) [Example 54] ... Fulfilled
CCCNS(=O)(=NC(=O)Nc1ccc(Cl)cc1)c1ccc(C)cc1 (stereo not drawn) [Example 5] ... Not fulfilled
N=S(=O)(NC(=O)Nc1ccc(Cl)cc1)c1ccc(C=O)cc1 (stereo not drawn) [Example 51] ... Fulfilled
Cc1ccc(S(=O)(=NC(=O)Nc2ccc(Cl)cc2)N(C)C)cc1 (stereo not drawn) [Example 18] ... Fulfilled
Cc1ccc(NC(=O)N=S(N)(=O)c2ccc(C)cc2)cc1 (stereo not drawn) [Example 24] ... Fulfilled
NS(=O)(=NC(=O)Nc1ccc(Cl)cc1)c1ccc(CO)cc1 (stereo not drawn) [Example 50] ... Fulfilled

Answer whether inhibition in vivo at 300 mg/kg of CCN=S(=O)(NC(=O)Nc1ccc(Cl)cc1)c1ccc(C)cc1 (stereo not drawn) [Example 4] is greater than or equal to 50%.
Not fulfilled

====

System: 6C3HED lymphosarcoma
assayName: animal or person
Assay type: in vivo
studyConditions: oral, 300 mg/kg, DX 8
Documented Tox/Tot (mice which died / total) across a set of compounds

Answered examples (5):
CN=S(=O)(NC(=O)Nc1ccc(Cl)cc1)c1ccc(C)cc1 (stereo not drawn) ... 0/10
Cc1ccc(S(=O)(=NC(=O)Nc2ccc(Cl)cc2)NCCO)cc1 (stereo not drawn) ... 0/10
Cc1ccc(S(=N)(=O)NC(=O)Nc2ccc(Cl)cc2)cc1 (stereo not drawn) ... 0/10
CCCNS(=O)(=NC(=O)Nc1ccc(Cl)cc1)c1ccc(C)cc1 (stereo not drawn) ... 0/10
N=S(=O)(NC(=O)Nc1ccc(Cl)cc1)c1ccc2c(c1)CCC2 (stereo not drawn) ... 0/10

// Input: CC(=O)NS(=O)(=NC(=O)Nc1ccc(Cl)cc1)c1ccc(C)cc1 (stereo not drawn) . Output its Tox/Tot (mice which died / total) only.
0/10

// Input: Cc1ccc(NC(=O)N=S(N)(=O)c2ccc(C)cc2)cc1 (stereo not drawn) . Output its Tox/Tot (mice which died / total) only.
0/10

// Input: Cc1ccc(S(=O)(=NC(=O)Nc2ccc(Cl)cc2)N(C)C)cc1 (stereo not drawn) . Output its Tox/Tot (mice which died / total) only.
0/10

// Input: Cc1ccc(S(=O)(=NC(=O)Nc2ccc(Cl)cc2)Nc2ccccc2)cc1 (stereo not drawn) . Output its Tox/Tot (mice which died / total) only.
0/10

====

Tested on: 6C3HED lymphosarcoma
assayName: animal or person
Type: in vivo
studyConditions: Mus musculus, 6C3HED, po, read-out: % inhibition of tumor growth, oral, 100 mg/kg, BIDX 8
attributeMeasured: inhibition in vivo at 100 mg/kg (%)
Entry rule: numbers only, all in %.

// Input: CN=S(=O)(NC(=O)Nc1ccc(Cl)cc1)c1ccc(C)cc1 (centres unmarked) . Output its inhibition in vivo at 100 mg/kg only.
99

// Input: CCc1ccc(S(=N)(=O)NC(=O)Nc2ccc(Cl)cc2)cc1 (centres unmarked) . Output its inhibition in vivo at 100 mg/kg only.
99

// Input: Cc1cc(C)cc(S(N)(=O)=NC(=O)Nc2ccc(Cl)cc2)c1 (centres unmarked) . Output its inhibition in vivo at 100 mg/kg only.
44

// Input: Cc1ccc(S(=N)(=O)NC(=O)Nc2ccc(Cl)cc2)cc1 (centres unmarked) . Output its inhibition in vivo at 100 mg/kg only.
96

// Input: NS(=O)(=NC(=O)Nc1ccc(Cl)cc1)c1ccc(Cl)cc1 (centres unmarked) . Output its inhibition in vivo at 100 mg/kg only.
100

====

Test system: 6C3HED lymphosarcoma
assayName: animal or person
Type: in vivo
studyConditions: oral, 150 mg/kg, BIDX 8
attributeMeasured: Tox/Tot (mice which died / total)

Answered examples (3):
Cc1cc(S(N)(=O)=NC(=O)Nc2ccc(Cl)cc2)cc(C)c1Cl (stereo not drawn) [Example 61] ... 0/10
N=S(=O)(NC(=O)Nc1ccc(Cl)cc1)c1ccc2c(c1)CCC2 (stereo not drawn) [Example 54] ... 0/10
CC(=O)N(C(=O)N=[S+]([O-])(c1ccc(C)cc1)N(C)C(C)=O)c1ccc(Cl)cc1 (stereo not drawn) [Example 17] ... 0/10

// Input: CC(=O)OCc1ccc(S(=N)(=O)NC(=O)Nc2ccc(Cl)cc2)cc1 (stereo not drawn) [Example 49] . Output its Tox/Tot (mice which died / total) only.
0/10

// Input: CN=S(=O)(NC(=O)Nc1ccc(Cl)cc1)c1ccc2c(c1)CCC2 (stereo not drawn) [Example 55] . Output its Tox/Tot (mice which died / total) only.
1/10

// Input: CNS(=O)(=NC(=O)N(C)c1ccc(Cl)cc1)c1ccc(C)cc1 (stereo not drawn) [Example 65] . Output its Tox/Tot (mice which died / total) only.
0/10

// Input: CC(=O)NS(=O)(=NC(=O)Nc1ccc(Cl)cc1)c1ccc(C)cc1 (stereo not drawn) [Example 15] . Output its Tox/Tot (mice which died / total) only.
0/10

// Input: Cc1ccc(S(=N)(=O)NC(=O)Nc2ccc(Cl)cc2)cc1C (stereo not drawn) [Example 36] . Output its Tox/Tot (mice which died / total) only.
6/10

// Input: CCN=S(=O)(NC(=O)Nc1ccc(Cl)cc1)c1ccc(C)cc1 (stereo not drawn) [Example 4] . Output its Tox/Tot (mice which died / total) only.
0/10

====

Test system: 6C3HED lymphosarcoma
assayName: animal or person
Format: in vivo
studyConditions: IP, 300 mg/kg, DX 8
Documented Tox/Tot (mice which died / total) across a set of molecules

CCCNS(=O)(=NC(=O)Nc1ccc(Cl)cc1)c1ccc(C)cc1 (stereo not drawn) ... 0/10
Cc1cc(S(N)(=O)=NC(=O)Nc2ccc(Cl)cc2)cc(C)c1Cl (stereo not drawn) ... 10/10

// Input: N=S(=O)(NC(=O)Nc1ccc(Cl)cc1)c1ccc(C=O)cc1 (stereo not drawn) . Output its Tox/Tot (mice which died / total) only.
9/10

// Input: CC(=O)NS(=O)(=NC(=O)Nc1ccc(Cl)cc1)c1ccc(C)cc1 (stereo not drawn) . Output its Tox/Tot (mice which died / total) only.
10/10
